- Experiment Summary: Cytotoxicity against human MT4 cells assessed as reduction in cell viability incubated for 5 days by MTT method
- Type: toxicity, cell-based
- Conditions: time 5 day
Record form. Attribute: CC50 at 120 h. Fill in for each entry.
Report as a plain number; the unit µM is understood.

Query: Item Cc1cc(/C=C/C#N)cc(C)c1Oc1nc(NC2CCN(Cc3cn(CC(N)=O)nn3)CC2)nc2sccc12 : provide CC50 at 120 h
Result: 62.5

Query: Item Cc1cc(/C=C/C#N)cc(C)c1Oc1ccnc(NC2CCN(Cc3cn(CC(N)=O)nn3)CC2)n1 : provide CC50 at 120 h
Result: 47.4

Query: Item Cc1cc(/C=C/C#N)cc(C)c1Oc1nc(NC2CCN(Cc3cn(CC(=O)NC4CC4)nn3)CC2)nc2ccccc12 : provide CC50 at 120 h
Result: 22.4

Query: Item COC(=O)CCCn1cc(CN2CCC(Nc3nccc(Oc4c(C)cc(C#N)cc4C)n3)CC2)nn1 : provide CC50 at 120 h
Result: 21.3

###

Record form. Attribute: CC50 at 120 h. Fill in for each entry.
- Experiment Summary: Cytotoxicity against human MT4 cells assessed as reduction in cell viability incubated for 5 days by MTT method
- Type: toxicity, cell-based
- Conditions: time 5 day
Report as a plain number; the unit µM is understood.

Query: Item CCNC(=O)Cn1cc(CN2CCC(Nc3nccc(Oc4c(C)cc(/C=C/C#N)cc4C)n3)CC2)nn1 : provide CC50 at 120 h
Result: 20.7

Query: Item Cc1cc(/C=C/C#N)cc(C)c1Oc1nc(NC2CCN(Cc3cn(CC(=O)NC4CC4)nn3)CC2)nc2ccsc12 : provide CC50 at 120 h
Result: 18.2

Query: Item Cc1cc(/C=C/C#N)cc(C)c1Oc1nc(NC2CCN(Cc3cn(CC(=O)NC4CCOCC4)nn3)CC2)nc2sccc12 : provide CC50 at 120 h
Result: 16

Query: Item CCNC(=O)Cn1cc(CN2CCC(Nc3nc(Oc4c(C)cc(/C=C/C#N)cc4C)c4sccc4n3)CC2)nn1 : provide CC50 at 120 h
Result: 17.5

Query: Item CCNC(=O)Cn1cc(CN2CCC(Nc3nc4c(c(Oc5c(C)cc(/C=C/C#N)cc5C)n3)COC4)CC2)nn1 : provide CC50 at 120 h
Result: 120

Query: Item Cc1cc(/C=C/C#N)cc(C)c1Oc1ccnc(NC2CCN(Cc3cn(Cc4ccc(B(O)O)cc4)nn3)CC2)n1 : provide CC50 at 120 h
Result: 4.62

Query: Item COC(=O)CCCn1cc(CN2CCC(Nc3nccc(Oc4c(C)cc(/C=C/C#N)cc4C)n3)CC2)nn1 : provide CC50 at 120 h
Result: 16.1

Query: Item Cc1cc(C#N)cc(C)c1Oc1ccnc(NC2CCN(Cc3cn(Cc4ccccc4C#N)nn3)CC2)n1 : provide CC50 at 120 h
Result: 4.24

Query: Item CCOC(=O)Cn1cc(CN2CCC(Nc3nccc(Oc4c(C)cc(/C=C/C#N)cc4C)n3)CC2)nn1 : provide CC50 at 120 h
Result: 18.8

Query: Item CNC(=O)Cn1cc(CN2CCC(Nc3nccc(Oc4c(C)cc(/C=C/C#N)cc4C)n3)CC2)nn1 : provide CC50 at 120 h
Result: 23.5

Query: Item Cc1cc(C#N)cc(C)c1Oc1ccnc(NC2CCN(Cc3cn(Cc4ccc(C(N)=O)cc4)nn3)CC2)n1 : provide CC50 at 120 h
Result: 7.69

Query: Item COC(=O)Cn1cc(CN2CCC(Nc3nccc(Oc4c(C)cc(/C=C/C#N)cc4C)n3)CC2)nn1 : provide CC50 at 120 h
Result: 26.2

Query: Item CNC(=O)Cn1cc(CN2CCC(Nc3nc(Oc4c(C)cc(/C=C/C#N)cc4C)c4ccccc4n3)CC2)nn1 : provide CC50 at 120 h
Result: 18.1

Query: Item Cc1cc(/C=C/C#N)cc(C)c1Oc1ccnc(NC2CCN(Cc3cn(CC(=O)N4CCOCC4)nn3)CC2)n1 : provide CC50 at 120 h
Result: 30.5

Query: Item CCNC(=O)Cn1cc(CN2CCC(Nc3nc(Oc4c(C)cc(/C=C/C#N)cc4C)c4ccsc4n3)CC2)nn1 : provide CC50 at 120 h
Result: 19.1

Query: Item Cc1cc(/C=C/C#N)cc(C)c1Oc1nc(NC2CCN(Cc3cn(CC(N)=O)nn3)CC2)nc2ccsc12 : provide CC50 at 120 h
Result: 16.2

Query: Item Cc1cc(/C=C/C#N)cc(C)c1Oc1nc(NC2CCN(Cc3cn(CC(=O)NC4CC4)nn3)CC2)nc2c1COC2 : provide CC50 at 120 h
Result: 118
